# TARGET_OR_SYSTEM: Cytochrome P450 2B6 (Homo sapiens)
# Sequence (P20813 whole entry): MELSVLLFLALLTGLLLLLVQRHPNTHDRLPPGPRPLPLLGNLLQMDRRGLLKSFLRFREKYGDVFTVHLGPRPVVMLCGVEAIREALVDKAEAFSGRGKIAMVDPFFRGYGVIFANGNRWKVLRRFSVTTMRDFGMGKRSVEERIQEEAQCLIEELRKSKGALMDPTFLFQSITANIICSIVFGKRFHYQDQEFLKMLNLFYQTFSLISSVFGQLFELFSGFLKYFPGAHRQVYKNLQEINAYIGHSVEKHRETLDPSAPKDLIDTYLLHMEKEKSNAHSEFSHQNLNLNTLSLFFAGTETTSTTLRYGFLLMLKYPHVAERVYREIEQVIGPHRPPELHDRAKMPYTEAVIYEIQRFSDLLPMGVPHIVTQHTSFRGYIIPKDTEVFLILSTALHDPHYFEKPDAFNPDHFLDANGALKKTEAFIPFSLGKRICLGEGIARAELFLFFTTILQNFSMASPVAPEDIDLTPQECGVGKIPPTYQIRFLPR
# EXPERIMENTAL_DETAILS: Inhibition of CYP2B6 (unknown origin)
# Assay type: ADME

# COMPOUND, TARGET_OR_SYSTEM, IC50
records = [
    ("CC(c1c[nH]c(=O)c2ccccc12)N(C)C(=O)Nc1ccc(F)c(Cl)c1 (stereo unspecified)", "Cytochrome P450 2B6 (Homo sapiens)", "> 20 µM"),
]

----------
# TARGET_OR_SYSTEM: UniProtKB P05177
# Sequence (P05177 whole entry): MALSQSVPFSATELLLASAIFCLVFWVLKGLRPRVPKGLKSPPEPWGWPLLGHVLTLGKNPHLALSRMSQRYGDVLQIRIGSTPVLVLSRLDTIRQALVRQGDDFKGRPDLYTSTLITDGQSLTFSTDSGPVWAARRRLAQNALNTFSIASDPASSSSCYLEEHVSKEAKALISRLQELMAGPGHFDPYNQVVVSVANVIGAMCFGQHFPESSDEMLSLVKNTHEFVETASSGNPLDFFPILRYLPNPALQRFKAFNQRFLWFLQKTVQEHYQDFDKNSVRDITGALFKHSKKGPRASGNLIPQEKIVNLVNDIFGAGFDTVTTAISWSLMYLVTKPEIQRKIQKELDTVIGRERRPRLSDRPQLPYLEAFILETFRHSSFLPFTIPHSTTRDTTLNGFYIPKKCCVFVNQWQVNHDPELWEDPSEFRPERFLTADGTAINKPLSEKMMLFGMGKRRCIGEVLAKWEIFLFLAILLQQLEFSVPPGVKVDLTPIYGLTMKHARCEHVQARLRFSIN
pIC50: −log10 of the molar value.
QUANTITY_MEASURED: pIC50

# COMPOUND, RESULT
rows = [
    ("CC(c1c[nH]c(=O)c2ccccc12)N(C)C(=O)Nc1ccc(F)c(Cl)c1 (stereo unspecified)", "< 4.70"),
]

----------
Measured microsomal CLint, listed per entry for reference.
# EXPERIMENTAL_DETAILS: Microsomal stability in human liver microsomes assessed as intrinsic clearance
# Type: ADME, Microsome
# CONDITION_DETAILS: read-out: CLH

# MOLECULE, microsomal CLint / µL/min/mg
measured = [
    ("C[C@H](c1c[nH]c(=O)c2cc(F)c(F)cc12)N(C)C(=O)Nc1cccc(Cl)c1", 32),
    ("C[C@H](c1c[nH]c(=O)c2cc(F)c(F)cc12)N(C)C(=O)Nc1ccc(F)c(Cl)c1", 32),
    ("COCCCN(C(=O)Nc1ccc(F)c(Cl)c1)C(C)c1c[nH]c(=O)c2ccccc12 (stereo not given)", 54),
    ("C[C@H](c1c[nH]c(=O)c2cc(F)c(F)cc12)N(C)C(=O)Nc1ccc(F)c(C#N)c1", 31),
    ("C[C@H](c1c[nH]c(=O)c2cc(F)c(F)cc12)N(C)C(=O)c1cc2ccc(F)cc2[nH]1", 13),
]

----------
# EXPERIMENTAL_DETAILS: Microsomal stability in rat liver microsomes assessed as intrinsic clearance
# Assay type: ADME, Microsome
# CONDITION_DETAILS: read-out: CLH

# MOLECULAR_STRING, microsomal CLint (µL/min/mg)
data = [
    ("C[C@H](c1c[nH]c(=O)c2cc(F)c(F)cc12)N(C)C(=O)Nc1ccc(F)c(C#N)c1", 46),
]

----------
# EXPERIMENTAL_DETAILS: Microsomal stability in mouse liver microsomes assessed as intrinsic clearance
# Format: ADME, Microsome
# CONDITION_DETAILS: read-out: CLH
Label true for high-side microsomal CLint (at or above 40 µL/min/mg) and false for low-side microsomal CLint (below it).

# MOLECULE, CLASS_LABEL
measured = [
    ("C[C@H](c1c[nH]c(=O)c2cc(F)c(F)cc12)N(C)C(=O)Nc1ccc(F)c(Cl)c1", "false"),
    ("Cc1cc(NC(=O)N(C)[C@H](C)c2c[nH]c(=O)c3cc(F)c(F)cc23)ccc1F", "true"),
    ("C[C@H](c1c[nH]c(=O)c2cc(F)c(F)cc12)N(C)C(=O)Nc1ccc(F)c(F)c1", "false"),
    ("C[C@H](c1c[nH]c(=O)c2c(F)cc(F)cc12)N(C)C(=O)Nc1ccc(F)c(Cl)c1", "false"),
    ("CCN(C(=O)Nc1ccc(F)c(Cl)c1)C(C)c1c[nH]c(=O)c2ccccc12 (centres undefined)", "false"),
    ("C[C@H](c1c[nH]c(=O)c2cc(F)c(F)cc12)N(C)C(=O)Nc1ccc(F)c(C#N)c1", "false"),
    ("COCCN(C(=O)Nc1ccc(F)c(Cl)c1)C(C)c1c[nH]c(=O)c2ccccc12 (centres undefined)", "true"),
    ("CC(c1c[nH]c(=O)c2ccccc12)N(C)C(=O)Nc1ccc(F)c(Cl)c1 (centres undefined)", "false"),
    ("CC(C)CN(C(=O)Nc1ccc(F)c(Cl)c1)C(C)c1c[nH]c(=O)c2ccccc12 (centres undefined)", "true"),
]

----------
# Tested on: Hepatitis B virus
# EXPERIMENTAL_DETAILS: Antiviral activity against HBV infected in HepDE19 cells
# Assay type: functional, organism-based
pEC50: −log10 of the molar value.
Cut-off 7 on pEC50, inclusive. At or above means true; below means false.

# MOLECULAR_STRING, CLASS_LABEL
data = [
    ("COc1ccc2c(=O)[nH]cc([C@@H](C)N(C)C(=O)Nc3ccc(F)c(Cl)c3)c2c1", "false"),
    ("COc1cccc2c(=O)[nH]cc([C@@H](C)N(C)C(=O)Nc3ccc(F)c(Cl)c3)c12", "false"),
    ("C[C@H](c1c[nH]c(=O)c2cc(F)c(F)cc12)N(C)C(=O)[C@H]1Cc2ccccc2N1", "false"),
    ("C[C@H](c1c[nH]c(=O)c2cc(F)c(F)cc12)N(C)C(=O)Nc1ccc(F)c(C#N)c1", "true"),
    ("C[C@H](c1c[nH]c(=O)c2cc(F)c(F)cc12)N(C)C(=O)Nc1cccc(F)c1F", "false"),
    ("C[C@H](c1c[nH]c(=O)c2cc(F)c(F)cc12)N(C)C(=O)Nc1ccc(F)c(Cl)c1", "true"),
]

----------
# EXPERIMENTAL_DETAILS: Microsomal stability in monkey liver microsomes assessed as intrinsic clearance
# Assay type: ADME, Macaca mulatta, Microsome
# CONDITION_DETAILS: rhesus monkey, read-out: CLH
QUANTITY_MEASURED: microsomal CLint (µL/min/mg)

# MOLECULAR_STRING, UNITS, QUANTITATIVE_READOUT
rows = [
    ("C[C@H](c1c[nH]c(=O)c2cc(F)c(F)cc12)N(C)C(=O)Nc1ccc(F)c(C#N)c1", "µL/min/mg", 34),
]

----------
Reported EC50 values follow for various compounds
# System: Hepatitis B virus
# EXPERIMENTAL_DETAILS: Antiviral activity against HBV infected in HepDE19 cells
# Type: functional, organism-based
QUANTITY_MEASURED: EC50 (µM)

# COMPOUND, QUANTITATIVE_READOUT
rows = [
    ("C[C@H](c1c[nH]c(=O)c2cc(F)c(F)cc12)N(C)C(=O)Nc1ccccc1", 0.11),
    ("C[C@H](c1c[nH]c(=O)c2cc(F)ccc12)N(C)C(=O)Nc1ccc(F)c(Cl)c1", 0.02),
    ("C[C@H](c1c[nH]c(=O)c2c(Cl)cccc12)N(C)C(=O)Nc1ccc(F)c(Cl)c1", 0.085),
    ("COCCCN(Cc1c[nH]c(=O)c2ccccc12)C(=O)Nc1ccc(F)c(Cl)c1", 0.13),
    ("C[C@H](c1c[nH]c(=O)c2ccc(F)cc12)N(C)C(=O)Nc1ccc(F)c(Cl)c1", 0.032),
    ("CC(c1c[nH]c(=O)c2ccccc12)N(C)C(=O)Nc1ccc(F)c(Cl)c1 (centres undefined)", 0.045),
    ("CCCCN(C(=O)Nc1ccc(F)c(Cl)c1)C(C)c1c[nH]c(=O)c2ccccc12 (centres undefined)", 0.006),
    ("C[C@H](c1c[nH]c(=O)c2cc(F)c(F)cc12)N(C)C(=O)Nc1ccc(F)c(F)c1", 0.013),
    ("C[C@H](c1c[nH]c(=O)c2cc(F)c(F)cc12)N(C)C(=O)Nc1cccc(F)c1", 0.037),
]

----------
# EXPERIMENTAL_DETAILS: Microsomal stability in mouse liver microsomes assessed as intrinsic clearance
# Format: ADME, Microsome
# CONDITION_DETAILS: read-out: CLH

# COMPOUND, microsomal CLint
rows = [
    ("C[C@H](c1c[nH]c(=O)c2cc(F)c(F)cc12)N(C)C(=O)c1cc2cc(F)c(F)cc2[nH]1", "22 µL/min/mg"),
    ("C[C@H](c1c[nH]c(=O)c2cc(F)ccc12)N(C)C(=O)Nc1ccc(F)c(Cl)c1", "37 µL/min/mg"),
    ("CC(c1c[nH]c(=O)c2ccccc12)N(CCCO)C(=O)Nc1ccc(F)c(Cl)c1 (centres undefined)", "185 µL/min/mg"),
    ("C[C@H](c1c[nH]c(=O)c2cc(F)c(F)cc12)N(C)C(=O)c1cc2ccc(F)cc2[nH]1", "33 µL/min/mg"),
]
